# Protocol Details: in vitro
# Condition Notes: mouse
Measured Endpoint: CC50 (µg/mL)
// units = µg/mL; emit number, no label

Reference set, count: 3
{"columns": ["Molecule", "Assay Value"],
 "data": [
  ["CC(=O)Nc1ccc(O)cc1 [Acetaminophen]", 500],
  ["CCOc1ccc(NC(C)=O)cc1 [Phenacetin]", 1000],
  ["C[C@@H]1O[C@@H](O[C@H]2C[C@@H](O)[C@]3(CO)[C@H]4[C@H](O)C[C@]5(C)[C@@H](C6=CC(=O)OC6)CC[C@]5(O)[C@@H]4CC[C@]3(O)C2)[C@H](O)[C@H](O)[C@H]1O [Ouabain]", 500]
]}

Moving on to the next molecule.
The molecule identified as COC(=O)Nc1nc2cc(C(=O)c3ccc(F)cc3)ccc2[nH]1 [Flubendazole] registered its CC50 at 0.15
